Each record here notes measured kon.
Biological target: T1, Mouse PD-1 extracellular domain, hFc tag (mouse, UniProt Q02242 25-169)
T1 construct: extracellular domain; also called mPro1.ECD.hFc; not shown: human Fc tag at C-terminus
T1 sequence (looked up): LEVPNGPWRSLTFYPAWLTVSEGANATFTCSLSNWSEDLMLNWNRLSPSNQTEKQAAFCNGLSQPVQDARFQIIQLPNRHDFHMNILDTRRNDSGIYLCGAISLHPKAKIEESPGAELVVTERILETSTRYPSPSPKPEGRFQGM
Assay: SPR Biacore 8K; PD-1-hFc captured on anti-human Fc chip, VHH injected; 1:1 fit
Report the figure in M⁻¹ s⁻¹ without appending any unit label.

BINDER	UNIT SYMBOL	VALUE OBSERVED
AP17R1-2H2-Z1-R1-14B3 (VHH, not shown: his- and c-Myc-tag from vector pETbac) VHH: QVQLVESGGGVVQPGGSLRLSCAASDSIDSLVNMGWYRQAPGKQRELVALIARYITHYADFVKGRFTISRDNSKNTLYLQMNSLRAEDTAVYYCYARNIIVDYWGQGTLVTVSS	M⁻¹ s⁻¹	344000

Kindly consider the entry below.
Challenge: Quote kon reported for AP17R1-2H2-Z1 (VHH, also called the humanized AP17R1-2H2; not shown: his- and c-Myc-tag from vector pETbac) VHH: QVQLVESGGGVVQPGGSLRLSCAASDSIDSLVNMGWYRQAPGKQRELVALIANYITHYADFVKGRFTISRDNSKNTLYLQMNSLRAEDTAVYYCYARNIIVDYWGQGTLVTVSS please.
Response given: 205000
